The following compounds are listed with their measured Plant response rating, Blackgrass values.
# System: blackgrass (Alopecurus myosuroides)
# ASSAY_METHOD_TEXT: Test D controlled growth environment herbicide test, pre- and postemergence
# Assay type: in vivo
# RUN_CONDITIONS: postemergence, 62 g ai/ha; scale 0 to 100, 0 no effect, 100 complete control
# print the numeric value only

Worked examples, 2 compounds total:
MOLECULE | OBSERVED
CCc1sc2ccc(C)cc2c1-c1c(O)c(C)nn(C)c1=O | 25
CCc1sc2c(C)cc(C)cc2c1-c1c(O)c(C)nn(C)c1=O | 45

[ask] Given Cc1cc(C)c2sc(C)c(-c3c(O)c(C)nn(C)c3=O)c2c1 , state its recorded Plant response rating, Blackgrass.
[reply] 70

[ask] Given Cc1nn(C)c(=O)c(-c2c(C)sc3c(C)cc(Cl)cc23)c1O , state its recorded Plant response rating, Blackgrass.
[reply] 65

[ask] Given Cn1nc(Br)c(O)c(-c2cccc3ccccc23)c1=O , state its recorded Plant response rating, Blackgrass.
[reply] 40

====

# Test system: morningglory (Ipomoea coccinea)
# ASSAY_METHOD_TEXT: Test C greenhouse herbicide test, pre- and postemergence
# Type: in vivo
# RUN_CONDITIONS: Postemergence, 250 g ai/ha; scale 0 to 100, 0 no effect, 100 complete control; 13 to 15 d
PROPERTY_NAME: Plant response rating, Morningglory
# print the numeric value only

MOLECULE | Plant response rating, Morningglory
Cc1sc2ccccc2c1-c1c(O)c(Cl)nn(C)c1=O [Compound 89] | 98
Cc1nn(C)c(=O)c(-c2c(C)sc3ccc(C(F)(F)F)cc23)c1O [Compound 121] | 98
CC(=O)Oc1c(C)nn(C)c(=O)c1-c1c(C)sc2ccc(C(F)(F)F)cc12 [Compound 132] | 98
COC(=O)Oc1cnn(C)c(=O)c1-c1c(C)sc2ccccc12 [Compound 97] | 30
Cn1nc(Br)c(O)c(-c2cccc3ccccc23)c1=O [Compound 20] | 100

[ask] Given Cc1cc(C)c2ccccc2c1-c1c(O)c(C)nn(C)c1=O [Compound 21] , state its recorded Plant response rating, Morningglory.
[reply] 100

[ask] Given CCc1ccc2ccccc2c1-c1c(O)c(C)nn(C)c1=O [Compound 32] , state its recorded Plant response rating, Morningglory.
[reply] 100

[ask] Given Cc1ccc2ccccc2c1-c1c(O)c(Br)nn(C)c1=O [Compound 23] , state its recorded Plant response rating, Morningglory.
[reply] 100

[ask] Given COC(=O)Oc1c(C)nn(C)c(=O)c1-c1ccc(F)c2ccccc12 [Compound 130] , state its recorded Plant response rating, Morningglory.
[reply] 100

====

# System: crabgrass, large (large crabgrass, Digitaria sanguinalis)
# ASSAY_METHOD_TEXT: Test C greenhouse herbicide test, pre- and postemergence
# Type: in vivo
# RUN_CONDITIONS: Preemergence, 250 g ai/ha; scale 0 to 100, 0 no effect, 100 complete control
Think of 40 as a floor: if Crabgrass, Large plant response rating stands on it or above, it is rule met; beneath it, rule not met.

Examples with answers:
COMPOUND | CLASS_ASSIGNMENT
CCc1oc2ccc(C)cc2c1-c1c(O)c(C)nn(C)c1=O [Compound 10] | rule not met
COC(=O)Oc1c(OC)nn(C)c(=O)c1-c1c(C)ccc2ccccc12 [Compound 136] | rule met
COC(=O)Oc1c(C)nn(C)c(=O)c1-c1ccc(Br)c2ccccc12 [Compound 145] | rule met

[ask] Does the compound CCCC(=O)Oc1c(C)nn(C)c(=O)c1-c1c(CC)sc2ccc(C)cc12 [Compound 107] have recorded Crabgrass, Large plant response rating that is 40 or more?
[reply] rule met

====

# Tested on: lambsquarters (Chenopodium album)
# ASSAY_METHOD_TEXT: Test C greenhouse herbicide test, pre- and postemergence
# Assay type: in vivo
# RUN_CONDITIONS: Postemergence, 125 g ai/ha; scale 0 to 100, 0 is no effect, 100 is complete control
The following compounds are listed with their measured Plant response rating, Lambsquarters values.
# print the numeric value only

Worked examples, 6 compounds total:
COMPOUND | EXPERIMENTAL_SYSTEM | Plant response rating, Lambsquarters
Cc1cc(C)c2sc(C)c(-c3c(O)c(C)nn(C)c3=O)c2c1 [Compound 2] | lambsquarters (Chenopodium album) | 98
CCc1ccc2ccccc2c1-c1c(O)c(C)nn(C)c1=O [Compound 32] | lambsquarters (Chenopodium album) | 98
CCC(=O)Oc1c(C)nn(C)c(=O)c1-c1ccc(F)c2ccccc12 [Compound 113] | lambsquarters (Chenopodium album) | 100
CC(=O)Oc1c(C)nn(C)c(=O)c1-c1c(C)sc2ccc(Cl)cc12 [Compound 108] | lambsquarters (Chenopodium album) | 98
Cc1ccc2sc(C)c(-c3c(OC(=O)C(C)(C)C)c(C)nn(C)c3=O)c2c1 [Compound 26] | lambsquarters (Chenopodium album) | 90
CCC(=O)Oc1c(C)nn(C)c(=O)c1-c1c(C)ccc2ccccc12 [Compound 78] | lambsquarters (Chenopodium album) | 75

# input for lookup
[ask] Given Cc1nn(C)c(=O)c(-c2c(C)sc3ccc(C(F)(F)F)cc23)c1O [Compound 121] , state its recorded Plant response rating, Lambsquarters.
[reply] 98

====

# System: crabgrass, large (large crabgrass, Digitaria sanguinalis)
# ASSAY_METHOD_TEXT: Test E greenhouse herbicide test, pre- and postemergence
# Assay type: in vivo
# RUN_CONDITIONS: Preemergence, 125 g ai/ha; visual, scale 0 no effect to 100 complete control
PROPERTY_NAME: Plant response rating, Crabgrass, Large
# print the numeric value only

Worked examples, 3 compounds total:
MOLECULE | OBSERVED
Cc1cc(C)c2ccccc2c1-c1c(O)c(C)nn(C)c1=O | 100
Cc1cc(C)c2sc(C)c(-c3c(O)c(C)nn(C)c3=O)c2c1 | 30
CCc1sc2c(C)cc(C)cc2c1-c1c(O)c(C)nn(C)c1=O | 0

# input for lookup
[ask] Given Cc1nn(C)c(=O)c(-c2ccc(F)c3ccccc23)c1O , state its recorded Plant response rating, Crabgrass, Large.
[reply] 80

====

The following molecules are listed with their measured Plant response rating, Waterhemp values.
# Tested on: waterhemp (common waterhemp, Amaranthus rudis)
# ASSAY_METHOD_TEXT: Test E greenhouse herbicide test, pre- and postemergence
# Format: in vivo
# RUN_CONDITIONS: 125 g ai/ha, Postemergence; scale 0 to 100 (0 no effect, 100 complete control)

MOLECULE | Plant response rating, Waterhemp
CCCC(=O)Oc1c(C)nn(C)c(=O)c1-c1c(C)sc2ccc(C)cc12 | 90

[ask] Checklist item: Plant response rating, Waterhemp tested on waterhemp (common waterhemp, Amaranthus rudis), entry Cc1cc(C)c2sc(C)c(-c3c(O)c(C)nn(C)c3=O)c2c1 , value?
[reply] 75

[ask] Checklist item: Plant response rating, Waterhemp tested on waterhemp (common waterhemp, Amaranthus rudis), entry Cc1ccc2sc(Br)c(-c3c(O)c(C)nn(C)c3=O)c2c1 , value?
[reply] 70

[ask] Checklist item: Plant response rating, Waterhemp tested on waterhemp (common waterhemp, Amaranthus rudis), entry Cc1nn(C)c(=O)c(-c2ccc(Br)c3ccccc23)c1O , value?
[reply] 90

====

# Test system: galium (catchweed bedstraw, Galium aparine)
# ASSAY_METHOD_TEXT: Test A greenhouse herbicide test, postemergence
# Type: in vivo
# RUN_CONDITIONS: 125 g ai/ha, 0 to 100 scale where 0 is no effect and 100 is complete control
The following compounds are listed with their measured Plant response rating, Galium values.
# print the numeric value only

Worked examples, 2 compounds total:
MOLECULE | EXPERIMENTAL_SYSTEM | Plant response rating, Galium
COC(=O)Oc1c(OC)nn(C)c(=O)c1-c1c(C)sc2ccc(Cl)cc12 | galium (catchweed bedstraw, Galium aparine) | 70
Cc1nn(C)c(=O)c(-c2c(C)sc3ccc(C(F)(F)F)cc23)c1O | galium (catchweed bedstraw, Galium aparine) | 70

[ask] Given CCC(=O)Oc1c(OC)nn(C)c(=O)c1-c1c(C)sc2ccc(Cl)cc12 , state its recorded Plant response rating, Galium.
[reply] 70

====

# Tested on: oat, wild (wild oat, Avena fatua)
# ASSAY_METHOD_TEXT: Test C greenhouse herbicide test, postemergence
# Format: in vivo
# RUN_CONDITIONS: Postemergence, 62 g ai/ha; 0 to 100 scale (0 no effect, 100 complete control)
PROPERTY_NAME: Oat, Wild plant response rating
# print the numeric value only

Worked examples, 3 compounds total:
MOLECULE | Oat, Wild plant response rating
COC(=O)Oc1c(C)nn(C)c(=O)c1-c1ccc(Br)c2ccccc12 | 95
Cc1nn(C)c(=O)c(-c2cccc3ccc(Br)cc23)c1O | 80
COC(=O)Oc1c(OC)nn(C)c(=O)c1-c1c(C)ccc2ccccc12 | 75

# input for lookup
[ask] Given CC(=O)Oc1c(C)nn(C)c(=O)c1-c1c(C)sc2ccc(C(F)(F)F)cc12 , state its recorded Oat, Wild plant response rating.
[reply] 60
